system.tested: T1, human TREM2 (human, UniProt Q9NZC2 19-174, limits assumed)
T1 construct: also called triggering receptor expressed on myeloid cells 2
T1 sequence: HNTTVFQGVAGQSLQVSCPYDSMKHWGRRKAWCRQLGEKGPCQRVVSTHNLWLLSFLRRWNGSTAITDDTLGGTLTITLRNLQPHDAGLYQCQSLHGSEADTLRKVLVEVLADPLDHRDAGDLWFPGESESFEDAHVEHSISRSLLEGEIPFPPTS
assay.method.text: 1st screen (110 nM or 10 nM)
I'd be grateful if you could share measured Binding Signal (fold over 6E7 Parental antibody) for these entries.
Give bare numbers, in fold.

V67 (antibody, V domains shown) VH: EVQLVQSGAEVKKPGESLKISCKGSGYSFTSYWIAWVRQMPGKGLEWMGMIYPGDSDTRYSPSFQGQVTISADKSISTAYLQWSSLKASDTAMYFCARQRTFYYDSSDYFDYWGQGTLVTVSS VL: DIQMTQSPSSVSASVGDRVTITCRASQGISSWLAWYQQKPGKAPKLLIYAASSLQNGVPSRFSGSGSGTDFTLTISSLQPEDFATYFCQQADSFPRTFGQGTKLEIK = 0.8
V68 (antibody, V domains shown) VH: EVQLVQSGAEVKKPGESLKISCKGSGYSFTSYWIAWVRQMPGKGLEWMGIIYPGDSDTRYSPSFQGQVTISADKSISTAYLQWSSLKASDTAMYFCARQRTFRYDSSDYFDYWGQGTLVTVSS VL: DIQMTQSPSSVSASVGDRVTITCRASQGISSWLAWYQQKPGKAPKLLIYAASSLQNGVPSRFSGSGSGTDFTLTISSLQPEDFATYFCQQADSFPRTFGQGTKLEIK = 0.44
V34 (antibody, V domains shown) VH: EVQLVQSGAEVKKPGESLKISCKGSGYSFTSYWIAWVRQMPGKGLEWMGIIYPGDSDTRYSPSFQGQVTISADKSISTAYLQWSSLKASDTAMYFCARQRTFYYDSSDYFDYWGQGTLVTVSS VL: DIQMTQSPSSVSASVGDRVTITCRASQGISSWLAWYQQKPGKAPKLLIYAASSLQDGVPSRFSGSGSGTDFTLTISSLQPEDFATYFCQQADSFPRTFGQGTKLEIK = 0.34
V26 (antibody, V domains shown) VH: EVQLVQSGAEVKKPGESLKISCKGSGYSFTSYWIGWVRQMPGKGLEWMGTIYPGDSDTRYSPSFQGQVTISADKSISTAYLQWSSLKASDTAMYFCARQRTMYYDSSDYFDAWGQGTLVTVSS VL: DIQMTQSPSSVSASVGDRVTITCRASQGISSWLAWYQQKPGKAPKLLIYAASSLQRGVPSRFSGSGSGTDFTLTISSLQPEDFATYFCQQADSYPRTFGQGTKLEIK = 3.57
V25 (antibody, V domains shown) VH: EVQLVQSGAEVKKPGESLKISCKGSGYSFGSYWIAWVRQMPGKGLEWMGLIYPGDSDTRYSPSFQGQVTISADKSISTAYLQWSSLKASDTAMYFCARSRTFYYDSSDYFDYWGQGTLVTVSS VL: DIQMTQSPSSVSASVGDRVTITCRASQGISSWLAWYQQKPGKAPKLLIYAASSLANGVPSRFSGSGSGTDFTLTISSLQPEDFATYFCQQADSMPRTFGQGTKLEIK = 4.23

# per-item lookup of Binding Signal (fold over 6E7 Parental antibody); items listed below
1. V14 (antibody, V domains shown) VH: EVQLVQSGAEVKKPGESLKISCKGSGYSFGSYWIAWVRQMPGKGLEWMGIIYPGDQDTRYSPSFQGQVTISADKSISTAYLQWSSLKASDTAMYFCARGRTFYYDSSDYFDYWGQGTLVTVSS VL: DIQMTQSPSSVSASVGDRVTITCRASQGISSWLAWYQQKPGKAPKLLIYAASRLQNGVPSRFSGSGSGTDFTLTISSLQPEDFATYFCQQADSFPRTFGQGTKLEIK
2. V17 (antibody, V domains shown) VH: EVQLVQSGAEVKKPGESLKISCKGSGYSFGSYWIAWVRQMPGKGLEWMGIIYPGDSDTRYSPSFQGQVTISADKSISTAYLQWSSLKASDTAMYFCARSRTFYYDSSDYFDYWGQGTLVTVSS VL: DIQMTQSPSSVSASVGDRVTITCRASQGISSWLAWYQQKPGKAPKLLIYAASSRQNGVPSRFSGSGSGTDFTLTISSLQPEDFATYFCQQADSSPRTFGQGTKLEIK

Out:
1. 4.71
2. 5.37

Could you tell me Binding Signal (fold over 6E7 Parental antibody) for each of these binders? They are listed below.
1. V57 (antibody, V domains shown) VH: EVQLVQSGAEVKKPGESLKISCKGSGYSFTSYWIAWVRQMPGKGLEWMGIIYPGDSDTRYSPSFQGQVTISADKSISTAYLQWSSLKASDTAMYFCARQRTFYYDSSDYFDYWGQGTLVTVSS VL: DIQMTQSPSSVSASVGDRVTITCAASQGISSWLAWYQQKPGKAPKLLIYAASSLQNGVPSRFSGSGSGTDFTLTISSLQPEDFATYFCQQADSFPRTFGQGTKLEIK
2. V36 (antibody, V domains shown) VH: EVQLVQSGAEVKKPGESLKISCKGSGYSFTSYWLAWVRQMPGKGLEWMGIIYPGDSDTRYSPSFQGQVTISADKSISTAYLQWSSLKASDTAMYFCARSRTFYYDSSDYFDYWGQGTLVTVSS VL: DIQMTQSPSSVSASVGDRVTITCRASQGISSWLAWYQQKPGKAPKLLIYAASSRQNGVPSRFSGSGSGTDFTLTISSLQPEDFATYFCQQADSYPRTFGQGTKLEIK

Out:
0.84
3.38

In: Given V8 (antibody, V domains shown) VH: EVQLVQSGAEVKKPGESLKISCKGSGYSFTSYWIAWVRQMPGKGLEWMGIIYPGDSDTKYSPSFQGQVTISADKSISTAYLQWSSLKASDTAMYFCARQRTFYYDSSDYFDYWGQGTLVTVSS VL: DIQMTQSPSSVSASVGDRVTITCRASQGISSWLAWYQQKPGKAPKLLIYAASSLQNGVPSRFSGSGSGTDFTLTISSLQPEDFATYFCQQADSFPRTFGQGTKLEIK , state its recorded Binding Signal (fold over 6E7 Parental antibody).
Out: 0.28

Measured values drawn from patent US20250282866A1 for this set.
